System: Klebsiella aerogenes DSM 30053
assay_method_text: growth (OD595) fold change vs plate DMSO controls (fold change (ratio)); higher = more growth
run_conditions: incubation time: 27 h, anaerobic, 37 °C
Structures can show the parent of a compound that is named as a salt.
Listed compounds paired with reported growth
readout: growth

compound	reported
C[N+]1(C)CCC(=C(c2ccccc2)c2ccccc2)CC1 [Diphemanil methylsulfate] (20 µM)	1.07
NS(=O)(=O)c1cc2c(cc1Cl)N=C(CSCc1ccccc1)NS2(=O)=O [Benzthiazide] (20 µM)	1.02
NC12CC3CC(CC(C3)C1)C2 [Adamantamine fumarate] (20 µM)	0.991
CC1CS(=O)(=O)CCN1/N=C/c1ccc([N+](=O)[O-])o1 (stereo unspecified) [Nifurtimox] (20 µM)	0.924
CCCC1O[C@@H]2C[C@H]3[C@@H]4CCC5=CC(=O)C=C[C@]5(C)[C@H]4[C@@H](O)C[C@]3(C)[C@]2(C(=O)CO)O1 (stereo partly specified) [Budesonide] (20 µM)	0.997
CC(N)CCCC(C)(C)O (stereo unspecified) [Heptaminol hydrochloride] (20 µM)	0.998

----------
Test system: Clostridium sporogenes DSM 1664
assay_method_text: growth (OD595) fold change vs plate DMSO controls (fold change (ratio)); higher = more growth
run_conditions: incubation time: 27 h, anaerobic, 37 °C
Where a name gives a salt, the structure may show the parent alone.

molecule	growth
CC(C)(C)NC(=O)[C@@H]1CN(Cc2cccnc2)CCN1C[C@@H](O)C[C@@H](Cc1ccccc1)C(=O)N[C@H]1c2ccccc2C[C@H]1O [Indinavir sulfate] (20 µM)	1.29
CC(=O)NS(=O)(=O)c1ccc(N)cc1 [Sulfacetamide sodic hydrate] (20 µM)	0.934
N=C(N)c1ccc(OCCCCCOc2ccc(C(=N)N)cc2)cc1 [Pentamidine isethionate] (20 µM)	1.15
OC[C@H]1O[C@H](O[C@H]2O[C@H](CO)[C@@H](O)[C@H](O)[C@H]2O)[C@H](O)[C@@H](O)[C@@H]1O [Trehalose] (50 µM)	0.902
NC(=O)c1cc[n+](CC2=C(C(=O)O)N3C(=O)[C@@H](NC(=O)C(c4ccccc4)S(=O)(=O)[O-])[C@H]3SC2)cc1 (some centres not stated) [Cefsulodin Sodium Salt Hydrate] (20 µM)	0.555
COc1cccc(OC)c1C(=O)N[C@@H]1C(=O)N2[C@@H]1SC(C)(C)[C@@H]2C(=O)O [Methicillin sodium] (20 µM)	0.569
CC(N)CCCC(C)(C)O (configuration not stated) [Heptaminol hydrochloride] (20 µM)	1.01
O=C(CCCN1CCC(O)(c2ccc(Cl)cc2)CC1)c1ccc(F)cc1 [Haloperidol] (20 µM)	0.929
CCCC(=O)Nc1ccc(OCC(O)CNC(C)C)c(C(C)=O)c1 (configuration not stated) [Acebutolol hydrochloride] (20 µM)	0.937
NC(=O)c1ncn([C@@H]2O[C@H](CO)[C@@H](O)[C@H]2O)n1 [Ribavirin] (20 µM)	1.13
OCc1cc(C(O)CNCCCCCCOCCCCc2ccccc2)ccc1O (configuration not stated) [Salmeterol] (20 µM)	1.17
CC(C)OC(=O)CCC/C=C\C[C@@H]1[C@@H](CC[C@@H](O)CCc2ccccc2)[C@H](O)C[C@@H]1O [Latanoprost] (20 µM)	0.975
CC12CC3CC(C)(C1)CC(N)(C3)C2 [Memantine hydrochloride] (20 µM)	1.01
CO/N=C(\C(=O)N[C@@H]1C(=O)N2C(C(=O)OCOC(=O)C(C)(C)C)=C(/C=C\c3scnc3C)CS[C@H]12)c1csc(N)n1 [Cefditoren Pivoxil] (20 µM)	0.809
CCC1(c2ccccc2)NC(=O)N(C)C1=O (configuration not stated) [Mephenytoin] (20 µM)	0.908
CC(=C(CCO)SSCC1CCCO1)N(C=O)Cc1cnc(C)nc1N (stereo in doubt) [Fursultiamine hydrochloride] (20 µM)	1.08
CC(=O)O[C@]1(C(C)=O)CC[C@H]2[C@@H]3C=C(C)C4=CC(=O)CC[C@]4(C)[C@H]3CC[C@@]21C [Megestrol acetate] (20 µM)	1.03
CCCCC1C(=O)N(c2ccccc2)N(c2ccccc2)C1=O [Phenylbutazone] (20 µM)	1.03
NCc1ccccc1CC(=O)N[C@@H]1C(=O)N2C(C(=O)O)=C(CSc3nnnn3CC(=O)O)CS[C@H]12 [Ceforanide] (20 µM)	0
CCN(CC)C(=O)/C(C#N)=C/c1cc(O)c(O)c([N+](=O)[O-])c1 [Entacapone] (20 µM)	0.868
Cc1cc(CC(=O)O)n(C)c1C(=O)c1ccc(Cl)cc1 [Zomepirac sodium salt] (20 µM)	1.21
O=S(=O)(O)NC1CCCCC1 [Cyclamic acid] (50 µM)	1.16
